Readings of activity coefficient for the listed molecules
- measurementDescription: activity coefficient (dimensionless); of the first substance listed, at infinite dilution; xn = mol fraction of the nth substance listed
- experimentalConditions: 368.15 K; 101 kPa; Liquid; Chromatography; x1 = 0
Form: value (number only, do not type unit).

1. Cc1ccccc1 [toluene] + CCCC[N+]1(C)CCCC1.N#C[B-](C#N)(C#N)C#N | 1.2

Query CCCCCCCCC [nonane] + CCCC[N+]1(C)CCCC1.N#C[B-](C#N)(C#N)C#N yields activity coefficient of 30.3

Query C=CCCCCC [1-heptene] + CCCC[N+]1(C)CCCC1.N#C[B-](C#N)(C#N)C#N yields activity coefficient of 8.93

Query C1CCCCC1 [cyclohexane] + CCCC[N+]1(C)CCCC1.N#C[B-](C#N)(C#N)C#N yields activity coefficient of 6.47

Query C1CCCCCC1 [cycloheptane] + CCCC[N+]1(C)CCCC1.N#C[B-](C#N)(C#N)C#N yields activity coefficient of 7.78

Query c1ccsc1 [thiophene] + CCCC[N+]1(C)CCCC1.N#C[B-](C#N)(C#N)C#N yields activity coefficient of 0.734

Query Cc1ccccc1C [1,2-dimethylbenzene] + CCCC[N+]1(C)CCCC1.N#C[B-](C#N)(C#N)C#N yields activity coefficient of 1.46

Query COC(C)(C)C [2-methoxy-2-methylpropane] + CCCC[N+]1(C)CCCC1.N#C[B-](C#N)(C#N)C#N yields activity coefficient of 2.55

Query CCCCC [pentane] + CCCC[N+]1(C)CCCC1.N#C[B-](C#N)(C#N)C#N yields activity coefficient of 9.09

Query CC1CCCCC1 [methylcyclohexane] + CCCC[N+]1(C)CCCC1.N#C[B-](C#N)(C#N)C#N yields activity coefficient of 8.94

Query C1CCOC1 [tetrahydrofuran] + CCCC[N+]1(C)CCCC1.N#C[B-](C#N)(C#N)C#N yields activity coefficient of 0.679

Query C=CCCC [1-pentene] + CCCC[N+]1(C)CCCC1.N#C[B-](C#N)(C#N)C#N yields activity coefficient of 5.02

Query C#CCCCC [1-hexyne] + CCCC[N+]1(C)CCCC1.N#C[B-](C#N)(C#N)C#N yields activity coefficient of 2.68

Query CCCCCCCC [octane] + CCCC[N+]1(C)CCCC1.N#C[B-](C#N)(C#N)C#N yields activity coefficient of 22.5

Query CCCC(C)=O [pentan-2-one] + CCCC[N+]1(C)CCCC1.N#C[B-](C#N)(C#N)C#N yields activity coefficient of 0.755

Query CCCO [propan-1-ol] + CCCC[N+]1(C)CCCC1.N#C[B-](C#N)(C#N)C#N yields activity coefficient of 1.04

Query CC(C)CC(C)(C)C [2,2,4-trimethylpentane] + CCCC[N+]1(C)CCCC1.N#C[B-](C#N)(C#N)C#N yields activity coefficient of 20

###

- measurementDescription: activity coefficient (dimensionless); of the first substance listed, at infinite dilution; xn = mol fraction of the nth substance listed
- experimentalConditions: 318.15 K; 101 kPa; Liquid; Chromatography; x1 = 0
Readings of activity coefficient for the listed compounds
Form: value (number only, do not type unit).

In the examples that follow, each entry is paired with its recorded activity coefficient.
1. CCCC(C)=O [pentan-2-one] + CCCC[N+]1(C)CCCC1.N#C[B-](C#N)(C#N)C#N | 0.692
2. CC(C)CC(C)(C)C [2,2,4-trimethylpentane] + CCCC[N+]1(C)CCCC1.N#C[B-](C#N)(C#N)C#N | 27.5
3. CCC(=O)CC [pentan-3-one] + CCCC[N+]1(C)CCCC1.N#C[B-](C#N)(C#N)C#N | 0.65
4. C#CCCCCCC [1-octyne] + CCCC[N+]1(C)CCCC1.N#C[B-](C#N)(C#N)C#N | 4.93
5. CCCCO [butan-1-ol] + CCCC[N+]1(C)CCCC1.N#C[B-](C#N)(C#N)C#N | 1.88
6. CC(C)OC(C)C [diisopropyl ether] + CCCC[N+]1(C)CCCC1.N#C[B-](C#N)(C#N)C#N | 6.08
7. CCCCCC [hexane] + CCCC[N+]1(C)CCCC1.N#C[B-](C#N)(C#N)C#N | 16.4
8. CCc1ccccc1 [ethylbenzene] + CCCC[N+]1(C)CCCC1.N#C[B-](C#N)(C#N)C#N | 1.56

Query CCC(C)(C)C [2,2-dimethylbutane] + CCCC[N+]1(C)CCCC1.N#C[B-](C#N)(C#N)C#N yields activity coefficient of 15.7

Query Cc1ccccc1 [toluene] + CCCC[N+]1(C)CCCC1.N#C[B-](C#N)(C#N)C#N yields activity coefficient of 1.09

The reported numbers originate from the NIST ThermoML archive (doi:10.1016/j.jct.2011.06.007).
